Reference source for all entries: patent US8613931B2

Please go through the items and note down their Binding Capacity.
Biological target: monoclonal antibody MV-001
Assay: ELISA, peptide-BSA coated, MV-001
Settings: scale: code
Reply with the value as a number alone.

Given the entry TEFRHKAC [p4753] , report its measured Binding Capacity.
3

Same again, this time with SQYFPRPC [p4729]
2

DTYFPRSC [p4703] , same question.
2

# repeat for ELFKHHLC [p4714]
3
